Reference source for all entries: the METLIN SMRT retention time set (Domingo-Almenara et al. 2019)

# assay_summary: gradient 5% acetonitrile 3 min, to 50% in 2 min, to 85% in 15 min, held 3 min, 100 µL/min
# conditions_used: column: Zorbax Extend-C18 2.1 x 50 mm; eluents: water / acetonitrile, 0.1% formic acid
RP-LC retention time listing for selected compounds.
Answer format: numeric, s implied, no suffix.

Some compounds with known RP-LC retention time results, for comparison:
compound="CCn1cnc(S(=O)(=O)N2CCCC(C(=O)Nc3ccc(Br)c(C)c3)C2)c1 (stereo unspecified)" scale_unit=s readout_number=889
compound=CCn1c(=O)oc2cc(-c3noc(-c4ccc(C)c(F)c4)n3)ccc21 scale_unit=s readout_number=1200
compound=Cc1nc(-c2cn(C)c3ncccc23)sc1C(=O)Nc1ccc(F)cc1F scale_unit=s readout_number=940

Kindly review the next compound as well.
Q: // query RP-LC retention time value for entry COc1ccc(NC(=O)N2CCCC2c2nc(-c3cccc(C)c3)no2)cc1 (stereo unspecified)
Result: 827
